- STUDY SYSTEM: various mutants of kinase EGFR (BaF3 cell lines stably transfected with kinase) (Homo sapiens, UniProt P00533, L858R)
- Construct: expressed in transfected cells; host or cells: BaF3
- Sequence (P00533 25-1210 L858R): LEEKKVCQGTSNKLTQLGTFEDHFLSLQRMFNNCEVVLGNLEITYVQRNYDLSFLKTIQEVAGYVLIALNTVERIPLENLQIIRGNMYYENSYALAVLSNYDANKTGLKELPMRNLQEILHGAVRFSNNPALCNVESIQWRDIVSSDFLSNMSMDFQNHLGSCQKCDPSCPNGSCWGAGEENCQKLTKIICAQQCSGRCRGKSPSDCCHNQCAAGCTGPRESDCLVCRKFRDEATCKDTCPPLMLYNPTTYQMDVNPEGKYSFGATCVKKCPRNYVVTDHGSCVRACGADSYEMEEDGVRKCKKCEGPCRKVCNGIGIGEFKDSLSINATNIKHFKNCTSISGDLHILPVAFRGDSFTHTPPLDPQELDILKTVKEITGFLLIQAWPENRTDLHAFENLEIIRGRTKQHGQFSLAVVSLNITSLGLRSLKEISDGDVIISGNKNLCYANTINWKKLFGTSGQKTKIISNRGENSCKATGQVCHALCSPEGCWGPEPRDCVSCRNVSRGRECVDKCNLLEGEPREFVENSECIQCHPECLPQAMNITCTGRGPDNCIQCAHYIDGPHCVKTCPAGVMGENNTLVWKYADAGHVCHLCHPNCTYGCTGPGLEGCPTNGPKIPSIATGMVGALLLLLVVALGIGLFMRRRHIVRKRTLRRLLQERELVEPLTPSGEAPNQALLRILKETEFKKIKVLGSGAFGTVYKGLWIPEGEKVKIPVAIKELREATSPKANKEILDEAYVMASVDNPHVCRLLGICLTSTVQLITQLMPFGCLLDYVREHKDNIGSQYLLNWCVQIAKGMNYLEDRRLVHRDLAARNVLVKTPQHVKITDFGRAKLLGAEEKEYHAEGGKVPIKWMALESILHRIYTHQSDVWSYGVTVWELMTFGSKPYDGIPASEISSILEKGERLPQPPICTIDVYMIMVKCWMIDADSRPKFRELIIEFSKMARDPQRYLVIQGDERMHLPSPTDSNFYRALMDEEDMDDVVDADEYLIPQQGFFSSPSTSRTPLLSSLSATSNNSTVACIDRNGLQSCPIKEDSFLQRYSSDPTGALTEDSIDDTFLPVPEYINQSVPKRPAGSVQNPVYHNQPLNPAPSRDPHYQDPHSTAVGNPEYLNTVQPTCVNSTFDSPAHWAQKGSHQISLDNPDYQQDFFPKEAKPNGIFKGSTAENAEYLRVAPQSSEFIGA
- ASSAY METHOD TEXT: Growth inhibitory activity of compounds on BaF3 cell lines stably transfected with kinase (MTS, 48 h)
- Format: cell-based
- DETAILS: BaF3 cell line stably transfected with EGFR L858R, read-out: L858R growth inhibitory activity IC50
pIC50: −log10 of the molar value.
Entries and their measured pIC50 follow.

{"SMILES CODE": "COc1cc(N2CCC(N(C)C)CC2)c(C)cc1Nc1nc(Nc2ccc3nccnc3c2N(C)S(C)(=O)=O)c2sccc2n1", "pIC50": "5.60 to 6.30"}
{"SMILES CODE": "COc1cc(N2CCN(C)CC2)c(C)cc1Nc1nc(Nc2ccc3nccnc3c2N(C)S(C)(=O)=O)c2[nH]ccc2n1", "pIC50": "5.60 to 6.30"}
{"SMILES CODE": "COc1ccc(N2CCC(O)CC2)cc1Nc1nc(Nc2ccc3nccnc3c2N(C)S(C)(=O)=O)c2cc[nH]c2n1", "pIC50": "6.30 to 7.30"}
{"SMILES CODE": "COc1nc(N2CCC(N3CCN(C)CC3)CC2)c(C)cc1Nc1ncc(Br)c(Nc2ccc3nccnc3c2N(C2CC2)S(C)(=O)=O)n1", "pIC50": "6.30 to 7.30"}
{"SMILES CODE": "COc1ccc(N2CCC(O)CC2)cc1Nc1ncc(Cl)c(Nc2ccc3nccnc3c2N(C)S(C)(=O)=O)n1", "pIC50": "6.30 to 7.30"}
{"SMILES CODE": "COc1ccc(N2CCC(O)CC2)cc1Nc1ncc(C)c(Nc2ccc3nccnc3c2N(C)S(C)(=O)=O)n1", "pIC50": "≥ 7.30"}
{"SMILES CODE": "CCc1cc(Nc2ncc(Br)c(Nc3ccc4nccnc4c3N(C)S(C)(=O)=O)n2)c(OC)cc1N1CCN(C2CN(C)C2)CC1", "pIC50": "≥ 7.30"}

----------
- STUDY SYSTEM: various mutants of kinase EGFR (BaF3 cell lines stably transfected with kinase) (Homo sapiens, UniProt P00533, T790M/C797S, form not given)
- Construct: other: BaF3 cells stably transfected with EGFR Δ19Del/T790M/C797S; MTS, 48; other: BaF3 cell line stably transfected with EGFR Δ19Del/T790M/C7
- Sequence (P00533 with tags, fused parts or gaps DEL746-750/T790M/C797S, form open): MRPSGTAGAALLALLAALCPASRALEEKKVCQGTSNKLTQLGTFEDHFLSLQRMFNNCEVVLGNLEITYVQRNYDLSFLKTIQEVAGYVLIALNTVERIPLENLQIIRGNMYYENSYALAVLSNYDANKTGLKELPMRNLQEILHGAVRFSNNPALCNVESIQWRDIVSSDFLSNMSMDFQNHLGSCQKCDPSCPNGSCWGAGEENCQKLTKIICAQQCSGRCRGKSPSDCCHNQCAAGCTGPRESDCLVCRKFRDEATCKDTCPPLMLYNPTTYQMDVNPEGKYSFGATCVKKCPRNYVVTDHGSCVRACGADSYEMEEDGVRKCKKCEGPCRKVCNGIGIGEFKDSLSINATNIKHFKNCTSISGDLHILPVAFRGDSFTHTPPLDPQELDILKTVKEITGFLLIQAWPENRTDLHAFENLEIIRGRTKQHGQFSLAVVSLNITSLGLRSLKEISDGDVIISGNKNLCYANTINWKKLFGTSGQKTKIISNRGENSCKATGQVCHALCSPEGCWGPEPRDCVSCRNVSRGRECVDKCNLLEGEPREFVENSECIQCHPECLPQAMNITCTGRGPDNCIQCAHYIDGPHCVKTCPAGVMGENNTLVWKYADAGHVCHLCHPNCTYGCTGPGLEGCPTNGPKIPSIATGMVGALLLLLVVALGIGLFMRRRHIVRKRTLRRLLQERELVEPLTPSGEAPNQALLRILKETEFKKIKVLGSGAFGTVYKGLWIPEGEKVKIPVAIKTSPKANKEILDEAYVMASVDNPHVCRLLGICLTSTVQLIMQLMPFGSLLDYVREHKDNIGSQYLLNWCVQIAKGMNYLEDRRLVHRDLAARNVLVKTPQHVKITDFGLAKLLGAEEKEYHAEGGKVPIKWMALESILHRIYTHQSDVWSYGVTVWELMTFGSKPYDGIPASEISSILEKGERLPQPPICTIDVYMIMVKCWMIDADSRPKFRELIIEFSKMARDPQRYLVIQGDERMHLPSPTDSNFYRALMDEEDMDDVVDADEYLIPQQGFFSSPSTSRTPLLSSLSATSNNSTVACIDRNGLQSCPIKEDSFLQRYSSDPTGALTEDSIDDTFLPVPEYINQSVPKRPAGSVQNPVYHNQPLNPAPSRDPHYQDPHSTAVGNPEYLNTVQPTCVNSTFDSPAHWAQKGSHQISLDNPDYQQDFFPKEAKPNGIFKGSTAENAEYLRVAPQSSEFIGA
- ASSAY METHOD TEXT: Growth inhibitory activity of compounds on BaF3 cell lines stably transfected with kinase (MTS, 48 h)
- Type: cell-based
- DETAILS: BaF3 cell line stably transfected with EGFR Δ19Del/T790M/C797S, read-out: Δ19Del/T790M/ C797S growth inhibitory activity IC50
pIC50: −log10 of the molar value.

{"MOLECULE": "CCc1cc(Nc2ncc(Br)c(Nc3ccc4nccnc4c3N(C)S(C)(=O)=O)n2)c(OC)cc1N1CCC(N2CCN(C)CC2)CC1 [Compound I-396]", "pIC50": "≥ 7.30"}
{"MOLECULE": "CCc1cc(Nc2nc(Nc3ccc4nccnc4c3N(C)S(C)(=O)=O)c3sccc3n2)c(OC)cc1N1CCC(N(C)C)C1 (stereo not shown) [II-1-17]", "pIC50": "6.30 to 7.30"}
{"MOLECULE": "CCc1cc(Nc2nccc(Nc3ccc4nccnc4c3N(C)S(C)(=O)=O)n2)ccc1N1CCC(N2CCN(C)CC2)CC1 [Compound I-344]", "pIC50": "6.30 to 7.30"}
{"MOLECULE": "CCc1cc(Nc2ncc(Br)c(Nc3ccc4nccnc4c3NS(C)(=O)=O)n2)c(OC)cc1N1CCC(N(C)C)C1 (stereo not shown) [Compound I-412]", "pIC50": "≥ 7.30"}
